B1: VH:VL chains; a variant is named by its letters at X, in order (parent)
chain 1: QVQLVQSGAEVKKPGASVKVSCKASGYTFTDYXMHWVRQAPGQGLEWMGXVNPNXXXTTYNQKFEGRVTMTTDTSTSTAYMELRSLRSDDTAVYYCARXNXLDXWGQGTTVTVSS
chain 2: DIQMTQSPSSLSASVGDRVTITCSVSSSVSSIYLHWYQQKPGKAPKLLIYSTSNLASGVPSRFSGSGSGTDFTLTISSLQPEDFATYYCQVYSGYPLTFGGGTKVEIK

variants of: B1; test: yeast display scFab, FACS + sequencing
measure_name: non-specific binding call

Worked examples, 5 variants total:
FRGTGFVD; binds
DAKKNASF; no binding
FRGRGDVD; binds
DRAGDAGA; no binding
FTTRDDSD; no binding

Indicate its recorded non-specific binding call; the variant in question is FATGGSGD
binds

Indicate its recorded non-specific binding call; the variant in question is DTGTGDVA
no binding

Indicate its recorded non-specific binding call; the variant in question is FTGRAAAV
no binding

Indicate its recorded non-specific binding call; the variant in question is DARGGSSY
no binding
